Recorded values, source ChEMBL document CHEMBL4265943.

Test: Selectivity index, ratio of CC50 for human AC10 cells to IC50 for human HCT116 cells
Type: toxicity
Conditions: AC10 cells (CC50) and HCT116 cells (IC50)
Parameter threshold = 5. Response is t when selectivity ratio meets or exceeds it, else f.

Examples with answers:
CC(=O)Nc1ccc(-c2ccnc(Nc3cccc(OCCCCCCC(=O)NO)c3)n2)cc1: f
O=C(CCCCCCC(=O)Nc1ccc(-c2ccnc(Nc3ccccc3)n2)cc1)NO: t
CC(=O)Nc1ccc(-c2nc(Nc3cccc(OCCCCCCC(=O)NO)c3)ncc2C)cc1: f
CC(=O)Nc1ccc(-c2nc(Nc3cccc(OCCCCCCCC(=O)NO)c3)ncc2C)cc1: f
CC(=O)Nc1ccc(-c2ccnc(Nc3cccc(NC(=O)CCCCCCC(=O)NO)c3)n2)cc1: t

I'd appreciate it if you could say whether Cc1cnc(Nc2ccc(N3CCN(C)CC3)cc2)nc1-c1ccc(NC(=O)CCCCCCC(=O)NO)cc1 has selectivity ratio at least equal to 5.
f

Could you verify whether the entry CC(=O)Nc1ccc(-c2ccnc(Nc3ccc(OCCCCCCC(=O)NO)cc3)n2)cc1 shows selectivity ratio of no less than 5?
f

Check the entry O=C(CCCCCCC(=O)Nc1ccc(-c2ccnc(Nc3ccc(N4CCOCC4)cc3)n2)cc1)NO : does selectivity ratio equal or exceed 5?
f

Entry O=C(CCCCCCC(=O)Nc1ccc(-c2ccnc(Nc3cccc(N4CCCCC4)c3)n2)cc1)NO : is its selectivity ratio no less than 5?
f

Check this compound for selectivity ratio at or above 5: CN1CCN(CC(=O)Nc2ccc(-c3ccnc(Nc4cccc(OCCCCCCC(=O)NO)c4)n3)cc2)CC1
t

Dear colleague, could you confirm whether CC(=O)Nc1ccc(-c2ccnc(Nc3cccc(OCCCCCC(=O)NO)c3)n2)cc1 has selectivity ratio at or above 5?
f

Exam item: decide whether the reported selectivity ratio for CN1CCN(CC(=O)Nc2ccc(-c3ccnc(Nc4ccc(OCCCCCCC(=O)NO)cc4)n3)cc2)CC1 is at least 5.
f

Assess whether reported selectivity ratio for CC(=O)Nc1ccc(-c2nc(Nc3ccc(OCCCCCC(=O)NO)cc3)ncc2C)cc1 sits at 5 or higher.
t

# check: selectivity ratio of CC(=O)Nc1ccc(-c2ccnc(Nc3cccc(OCCCCCCCC(=O)NO)c3)n2)cc1 is greater than or equal to 5
t

----------
Assay: Selectivity index, ratio of CC50 for mouse TAMH cells to IC50 for human XG6 cells
Assay type: toxicity
Settings: TAMH cells (CC50) and XG6 cells (IC50)
Label scheme for selectivity ratio: lower than 1 is f, 1 and above is t.

Worked cases, answers included:
CC(=O)Nc1ccc(-c2ccnc(Nc3ccc(OCCCCCCC(=O)NO)cc3)n2)cc1: t
CC(=O)Nc1ccc(-c2nc(Nc3cccc(OCCCCCCCC(=O)NO)c3)ncc2C)cc1: t
CC(=O)Nc1ccc(-c2ccnc(Nc3cccc(OCCCCCCCC(=O)NO)c3)n2)cc1: f
CC(=O)Nc1ccc(-c2ccnc(Nc3cccc(OCCCCCCC(=O)NO)c3)n2)cc1: t
CC(=O)Nc1ccc(-c2ccnc(Nc3cccc(OCCCCCC(=O)NO)c3)n2)cc1: t

Consider the record given below.
hey, is selectivity ratio for this one >= 1? CC(=O)Nc1ccc(-c2ccnc(Nc3ccc(NC(=O)CCCCCCC(=O)NO)cc3)n2)cc1
t

----------
Test: Selectivity index, ratio of CC50 for mouse TAMH cells to IC50 for human HEL 92.1.7 cells
Format: toxicity
Settings: TAMH cells (CC50) and HEL 92.1.7 cells (IC50)
// Not satisfied strictly below 5 in selectivity ratio; Satisfied otherwise

Quick check, selectivity ratio >= 5? CC(=O)Nc1ccc(-c2ccnc(Nc3ccc(OCCCCCCC(=O)NO)cc3)n2)cc1
Not satisfied

Does CC(=O)Nc1ccc(-c2ccnc(Nc3cccc(OCCCCCCCC(=O)NO)c3)n2)cc1 have a reported selectivity ratio of at least 5?
Not satisfied

For this compound, is measured selectivity ratio 5 or higher? CC(=O)Nc1ccc(-c2ccnc(Nc3cccc(OCCCCCCC(=O)NO)c3)n2)cc1
Satisfied

Item CC(=O)Nc1ccc(-c2ccnc(Nc3cccc(OCCCCCC(=O)NO)c3)n2)cc1 with selectivity ratio of 5 or above?
Not satisfied

Has CC(=O)Nc1ccc(-c2nc(Nc3cccc(OCCCCCCCC(=O)NO)c3)ncc2C)cc1 a recorded selectivity ratio greater than or equal to 5?
Not satisfied

----------
Assay: Selectivity index, ratio of CC50 for mouse TAMH cells to IC50 for human MDA-MB-231 cells
Format: toxicity
Conditions: TAMH cells (CC50) and MDA-MB-231 cells (IC50)
Reported selectivity ratio values for a set of molecules
Kindly provide the number alone.

Here are 3 molecules together with their reported answers.
CN1CCN(CC(=O)Nc2ccc(-c3ccnc(Nc4cccc(OCCCCCCC(=O)NO)c4)n3)cc2)CC1: 7.86
CN1CCN(c2ccc(Nc3nccc(-c4ccc(NC(=O)CCCCCCC(=O)NO)cc4)n3)cc2)CC1: 5.98
Cc1cnc(Nc2ccc(N3CCN(C)CC3)cc2)nc1-c1ccc(NC(=O)CCCCCCC(=O)NO)cc1: 7.71

Alright, here's another molecule for you.
Could you share which selectivity ratio value was measured for CC(=O)Nc1ccc(-c2ccnc(Nc3cccc(NC(=O)CCCCCCC(=O)NO)c3)n2)cc1 ?
8.14

----------
Tested on: MCF7
Experiment: Antiproliferative activity against human MCF7 cells after 72 hrs by MTT assay
Type: functional, cell-based
Settings: MCF7, 72 h
So basically: is IC50 under 1 µM? Then true. Not under? Then false.

CC(CCCCCC(=O)NO)n1cc(-c2ncnc3[nH]ccc23)cn1 (centres undefined): true
CC(=O)Nc1ccc(-c2nc(Nc3cccc(OCCCCCCC(=O)NO)c3)ncc2C)cc1: false
CN1CCN(CC(=O)Nc2ccc(-c3ccnc(Nc4cccc(OCCCCCCC(=O)NO)c4)n3)cc2)CC1: false
O=C(Nc1ccc(-c2ccnc(Nc3ccc(N4CCOCC4)cc3)n2)cc1)[C@@H]1CCCN1: false
O=C(CCCCCCC(=O)Nc1ccccc1)NO: true

Hello, I'm reviewing records and need to know if IC50 of CC(=O)Nc1ccc(-c2ccnc(Nc3ccc(OCCCCCCC(=O)NO)cc3)n2)cc1 is below 1 µM. Could you check?
true

In plain terms, does Cc1cnc(Nc2ccc(N3CCOCC3)cc2)nc1-c1ccc(NC(=O)CCCCCCC(=O)NO)cc1 come in under 1 µM for IC50?
false

Does the reported IC50 of the following compound sit strictly below 1 µM? CC(=O)Nc1ccc(-c2ccnc(Nc3ccc(NC(=O)CCCCCCC(=O)NO)cc3)n2)cc1
false

I wonder whether CC(=O)Nc1ccc(-c2ccnc(Nc3cccc(OCCCCCC(=O)NO)c3)n2)cc1 has IC50 below 1 µM. Can you tell?
false

----------
Reported selectivity ratio values for a set of compounds
Assay: Selectivity index, ratio of CC50 for human AC10 cells to IC50 for human Jurkat cells
Format: toxicity
Details: AC10 cells (CC50) and Jurkat cells (IC50)
Just the number, please, no unit after it.

CC(=O)Nc1ccc(-c2ccnc(Nc3cccc(OCCCCCC(=O)NO)c3)n2)cc1: 1.35
CC(=O)Nc1ccc(-c2nc(Nc3cccc(OCCCCCCCC(=O)NO)c3)ncc2C)cc1: 0.23
CC(=O)Nc1ccc(-c2ccnc(Nc3cccc(OCCCCCCCC(=O)NO)c3)n2)cc1: 3
CC(=O)Nc1ccc(-c2ccnc(Nc3ccc(OCCCCCCC(=O)NO)cc3)n2)cc1: 0.89

Quick one: selectivity ratio of CC(=O)Nc1ccc(-c2ccnc(Nc3cccc(OCCCCCCC(=O)NO)c3)n2)cc1 ?
2.92

----------
Collected selectivity ratio values appear next to each entry.
Test: Selectivity index, ratio of CC50 for mouse TAMH cells to IC50 for human MDA-MB-231 cells
Assay type: toxicity
Conditions: TAMH cells (CC50) and MDA-MB-231 cells (IC50)
Would you mind answering with just the numeric figure?

Some entries whose results are on file:
CC(=O)Nc1ccc(-c2ccnc(Nc3ccc(OCCCCCCC(=O)NO)cc3)n2)cc1: 2.35
CC(=O)Nc1ccc(-c2ccnc(Nc3cccc(OCCCCCCC(=O)NO)c3)n2)cc1: 3.99
CC(=O)Nc1ccc(-c2nc(Nc3ccc(OCCCCCC(=O)NO)cc3)ncc2C)cc1: 5.26
CN1CCN(CC(=O)Nc2ccc(-c3ccnc(Nc4ccc(OCCCCCCC(=O)NO)cc4)n3)cc2)CC1: 2.08

Lab note: next compound to report on.
Reported selectivity ratio for CC(=O)Nc1ccc(-c2ccnc(Nc3cccc(OCCCCCCCC(=O)NO)c3)n2)cc1 : what is it?
0.77

----------
Parameter: CC50 at 72 h. Scope: all listed entries.
Experiment: Antiproliferative activity against human AC10 cells after 72 hrs by MTT assay
Type: cell-based
API: value field is a number in µM; no unit string.

Illustrative cases are given below, each with its answer.
CN1CCN(c2ccc(Nc3nccc(-c4ccc(NC(=O)CCCCCCC(=O)NO)cc4)n3)cc2)CC1: 3.31
O=C(CCCCCCC(=O)Nc1ccc(-c2ccnc(Nc3ccc(N4CCCCC4)cc3)n2)cc1)NO: 11.7
CC(=O)Nc1ccc(-c2nc(Nc3cccc(OCCCCCCC(=O)NO)c3)ncc2C)cc1: 4.84
CC(=O)Nc1ccc(-c2ccnc(Nc3cccc(NC(=O)CCCCCCC(=O)NO)c3)n2)cc1: 19.5

# lookup: CC50 at 72 h of CN1CCN(CC(=O)Nc2ccc(-c3ccnc(Nc4ccc(OCCCCCCC(=O)NO)cc4)n3)cc2)CC1
4.1

For CC(=O)Nc1ccc(-c2nc(Nc3ccc(OCCCCCC(=O)NO)cc3)ncc2C)cc1 , what is its reported CC50 at 72 h?
16.9

What measured CC50 at 72 h goes with CC(=O)Nc1ccc(-c2ccnc(Nc3ccc(OCCCCCCC(=O)NO)cc3)n2)cc1 ?
2.39

// query CC50 at 72 h value for entry O=C(CCCCCCC(=O)Nc1ccc(-c2ccnc(Nc3ccccc3)n2)cc1)NO
3.01

Requested read-out: CC50 at 72 h. Entry: CC(=O)Nc1ccc(-c2ccnc(Nc3ccc(OCCCCCC(=O)NO)cc3)n2)cc1
5.74

What value of CC50 at 72 h has been recorded for this entry: CN1CCN(CC(=O)Nc2ccc(-c3ccnc(Nc4cccc(OCCCCCCC(=O)NO)c4)n3)cc2)CC1
6.27

What value of measured CC50 at 72 h is listed for CC(=O)Nc1ccc(-c2ccnc(Nc3cccc(OCCCCCC(=O)NO)c3)n2)cc1 ?
2.93
